system: Escherichia coli; assay type: functional, MTCC 443
inhibition zone (IZ) reference
Reply numerically in mm, unit not repeated.

Observe how each entry below is paired with its result.
COc1cc(-c2nnc(COc3cc(=O)oc4ccccc34)[nH]2)ccc1O | 13
COc1cc(-c2nnc(COc3cc(=O)oc4ccccc34)[nH]2)cc(OC)c1OC | 12
COc1ccc(-c2nnc(COc3cc(=O)oc4ccccc34)[nH]2)cc1 | 11
O=c1cc(OCc2nnc(-c3ccc(Br)cc3)[nH]2)c2ccccc2o1 | 15
O=c1cc(OCc2nnc(-c3ccco3)[nH]2)c2ccccc2o1 | 15

What value of inhibition zone (IZ) has been recorded for this entry: `Cc1ccc(-c2nnc(COc3cc(=O)oc4ccccc34)[nH]2)cc1`
11

Any idea what its inhibition zone (IZ) is? The compound is `O=c1cc(OCc2nnc(-c3cccs3)[nH]2)c2ccccc2o1`
14

State the recorded inhibition zone (IZ) for this entry: `O=c1cc(OCc2nnc(-c3ccc(Cl)cc3)[nH]2)c2ccccc2o1`
13

Quick one: inhibition zone (IZ) for `O=c1cc(OCc2nnc(-c3ccc(O)cc3)[nH]2)c2ccccc2o1` ?
14

Quick check: inhibition zone (IZ) of `O=c1cc(OCc2nnc(-c3ccccc3)[nH]2)c2ccccc2o1` ?
12

Suppose we examine the compound `O=c1cc(OCc2nnc(-c3ccc(F)cc3)[nH]2)c2ccccc2o1` ; what inhibition zone (IZ) value has been reported?
11

###

tested on: Aspergillus niger; assay: Antifungal activity against Aspergillus niger MTCC 282 after 28 to 30 hr by serial dilution method; type: functional
Items are presented alongside their recorded MIC.
Give your result as the value with the unit written after it.

// known answers, use as guide
O=c1cc(OCc2nnc(-c3ccc(Cl)cc3)[nH]2)c2ccccc2o1 | 12.5 µg/mL
O=c1cc(OCc2nnc(-c3ccc(Br)cc3)[nH]2)c2ccccc2o1 | 12.5 µg/mL

So what does the record say about MIC for `COc1ccc(-c2nnc(COc3cc(=O)oc4ccccc34)[nH]2)cc1` ?
6.25 µg/mL

Recorded MIC of `O=c1cc(OCc2nnc(-c3ccccc3)[nH]2)c2ccccc2o1` , please.
12.5 µg/mL

Fill blank: measured MIC of the compound `COc1ccc(-c2nnc(COc3cc(=O)oc4ccccc34)[nH]2)cc1OC` is ____.
6.25 µg/mL

Data request, read-out MIC, for `O=c1cc(OCc2nnc(-c3ccc(F)cc3)[nH]2)c2ccccc2o1`
12.5 µg/mL

Item under review: Clc1ccc(COC(Cn2ccnc2)c2ccc(Cl)cc2Cl)c(Cl)c1 (stereo not drawn) . Reported MIC?
6.25 µg/mL

Which MIC is listed for `O=c1cc(OCc2nnc(-c3cccs3)[nH]2)c2ccccc2o1` ?
6.25 µg/mL

Look at this compound and give its reported MIC. `COc1cc(-c2nnc(COc3cc(=O)oc4ccccc34)[nH]2)cc(OC)c1OC`
6.25 µg/mL

Value lookup for MIC; key = `O=c1cc(OCc2nnc(-c3ccc(O)cc3)[nH]2)c2ccccc2o1`
12.5 µg/mL

Query: MIC; subject: `Cc1ccc(-c2nnc(COc3cc(=O)oc4ccccc34)[nH]2)cc1`
6.25 µg/mL

Report MIC for `COc1cc(-c2nnc(COc3cc(=O)oc4ccccc34)[nH]2)ccc1O` please.
12.5 µg/mL

Give its MIC value. Item: `O=c1cc(OCc2nnc(-c3ccco3)[nH]2)c2ccccc2o1`
6.25 µg/mL

###

system: Escherichia coli; assay: Bactericidal against Escherichia coli MTCC 443 after 3 days; assay type: functional; details: MTCC 443, 72 h
Quick reference: MBC of the listed items.
Answer shape: numeric part, then the unit.

Entry under review: `COc1ccc(-c2nnc(COc3cc(=O)oc4ccccc34)[nH]2)cc1OC` . Reported MBC?
25 µg/mL

# input compound: `O=c1cc(OCc2nnc(-c3cccs3)[nH]2)c2ccccc2o1` ; wanted: its MBC
12.5 µg/mL

###

Reported values of inhibition zone (IZ) for individual entries
system: Staphylococcus epidermidis; format: functional, MTCC 435; also: test concentration or dose not given here

Fill in: inhibition zone (IZ) of `O=c1cc(OCc2nnc(-c3ccc(F)cc3)[nH]2)c2ccccc2o1` is ___
<10 mm

Please report the recorded inhibition zone (IZ) for `COc1ccc(-c2nnc(COc3cc(=O)oc4ccccc34)[nH]2)cc1OC` .
<10 mm

Returns the measured inhibition zone (IZ) for the input molecule. Input: `O=c1cc(OCc2nnc(-c3ccccc3)[nH]2)c2ccccc2o1`
12 mm

Requested field: inhibition zone (IZ). Item: `O=c1cc(OCc2nnc(-c3ccco3)[nH]2)c2ccccc2o1`
<10 mm

What does the data say about its inhibition zone (IZ)? Entry: `COc1cc(-c2nnc(COc3cc(=O)oc4ccccc34)[nH]2)ccc1O`
<10 mm

Quick one: inhibition zone (IZ) of `O=c1cc(OCc2nnc(-c3ccc(Cl)cc3)[nH]2)c2ccccc2o1` ?
<10 mm

Form field: reported inhibition zone (IZ) of `O=c1cc(OCc2nnc(-c3cccs3)[nH]2)c2ccccc2o1`
11 mm

// returns reported inhibition zone (IZ) for input `COc1ccc(-c2nnc(COc3cc(=O)oc4ccccc34)[nH]2)cc1`
<10 mm

Look at this molecule and give its reported inhibition zone (IZ). `COc1cc(-c2nnc(COc3cc(=O)oc4ccccc34)[nH]2)cc(OC)c1OC`
12 mm

Give its inhibition zone (IZ) value. Item: `Cc1ccc(-c2nnc(COc3cc(=O)oc4ccccc34)[nH]2)cc1`
<10 mm

###

test system: Aspergillus flavus; assay: Antifungal activity against Aspergillus flavus MTCC 277 after 28 to 30 hr by serial dilution method; format: functional
Catalogue of MIC readings, one per entry.

COc1ccc(-c2nnc(COc3cc(=O)oc4ccccc34)[nH]2)cc1OC | 25 µg/mL
O=c1cc(OCc2nnc(-c3ccc(F)cc3)[nH]2)c2ccccc2o1 | 12.5 µg/mL
O=c1cc(OCc2nnc(-c3ccc(O)cc3)[nH]2)c2ccccc2o1 | 25 µg/mL
COc1ccc(-c2nnc(COc3cc(=O)oc4ccccc34)[nH]2)cc1 | 25 µg/mL

Now look at this one.
Notebook: pull reported MIC for Aspergillus flavus, entry `COc1cc(-c2nnc(COc3cc(=O)oc4ccccc34)[nH]2)cc(OC)c1OC`
25 µg/mL

###

Form field: inhibition zone (IZ) (one value per entry).
tested on: Salmonella typhi; assay: Antibacterial activity against Salmonella enterica subsp. enterica serovar Typhi MTCC 733 at […] to […] ug/ml after 16 to 18 hr by cup-plate method; type: functional
Field: numeric (mm). Do not append units.

COc1cc(-c2nnc(COc3cc(=O)oc4ccccc34)[nH]2)cc(OC)c1OC | 14

Requested read-out inhibition zone (IZ), target or system Salmonella typhi, entry `Cc1ccc(-c2nnc(COc3cc(=O)oc4ccccc34)[nH]2)cc1`
12

inhibition zone (IZ) of `COc1cc(-c2nnc(COc3cc(=O)oc4ccccc34)[nH]2)ccc1O` on Salmonella typhi?
14

Item `O=c1cc(OCc2nnc(-c3ccc(O)cc3)[nH]2)c2ccccc2o1` with Salmonella typhi - inhibition zone (IZ)?
10

inhibition zone (IZ) of `O=c1cc(OCc2nnc(-c3ccc(Cl)cc3)[nH]2)c2ccccc2o1` on Salmonella typhi?
12

Could you share what inhibition zone (IZ) was measured for `O=c1cc(OCc2nnc(-c3ccc(F)cc3)[nH]2)c2ccccc2o1` , tested on Salmonella typhi?
11

I'm curious: which inhibition zone (IZ) was measured for `O=C(O)c1cn(C2CC2)c2cc(N3CCNCC3)c(F)cc2c1=O` tested on Salmonella typhi?
19

Give inhibition zone (IZ) (Salmonella typhi) of the following compound: `COc1ccc(-c2nnc(COc3cc(=O)oc4ccccc34)[nH]2)cc1OC`
13

What reported inhibition zone (IZ) corresponds to `O=c1cc(OCc2nnc(-c3ccc(Br)cc3)[nH]2)c2ccccc2o1` on Salmonella typhi?
11

###

Here the recorded MIC is given for each entry.
test system: Bacillus subtilis; test: Antibacterial activity against Bacillus subtilis MTCC 441 after 16 to 18 hr by serial dilution method; type: functional
Enter your answer as a number in µg/mL; do not include the unit.

COc1cc(-c2nnc(COc3cc(=O)oc4ccccc34)[nH]2)cc(OC)c1OC | 6.25
COc1ccc(-c2nnc(COc3cc(=O)oc4ccccc34)[nH]2)cc1 | 12.5
O=c1cc(OCc2nnc(-c3ccccc3)[nH]2)c2ccccc2o1 | 12.5
O=c1cc(OCc2nnc(-c3ccc(Cl)cc3)[nH]2)c2ccccc2o1 | 12.5

Shift focus to the following entry.
Given the entry `O=C(O)c1cn(C2CC2)c2cc(N3CCNCC3)c(F)cc2c1=O` , what MIC was observed with Bacillus subtilis?
6.25

###

test system: Aspergillus fumigatus; assay: Antifungal activity against Aspergillus fumigatus MTCC 343 after 28 to 30 hr by serial dilution method; type: functional
experimental-readout: MIC (µg/mL)
Enter your answer as a number in µg/mL; do not include the unit.

COc1ccc(-c2nnc(COc3cc(=O)oc4ccccc34)[nH]2)cc1 | 25
COc1cc(-c2nnc(COc3cc(=O)oc4ccccc34)[nH]2)cc(OC)c1OC | 25
Cc1ccc(-c2nnc(COc3cc(=O)oc4ccccc34)[nH]2)cc1 | 25
O=c1cc(OCc2nnc(-c3ccc(O)cc3)[nH]2)c2ccccc2o1 | 12.5
O=c1cc(OCc2nnc(-c3cccs3)[nH]2)c2ccccc2o1 | 12.5
O=c1cc(OCc2nnc(-c3ccco3)[nH]2)c2ccccc2o1 | 25

Recorded MIC for `O=c1cc(OCc2nnc(-c3ccc(F)cc3)[nH]2)c2ccccc2o1` with Aspergillus fumigatus, please?
12.5

Lab note: need MIC for `COc1ccc(-c2nnc(COc3cc(=O)oc4ccccc34)[nH]2)cc1OC` on Aspergillus fumigatus, anyone have it?
25

GET /values?readout=MIC&system=Aspergillus fumigatus&item= Clc1ccc(COC(Cn2ccnc2)c2ccc(Cl)cc2Cl)c(Cl)c1 (stereo not drawn)
12.5

Notebook entry, Aspergillus fumigatus assay: MIC of `O=c1cc(OCc2nnc(-c3ccc(Br)cc3)[nH]2)c2ccccc2o1` = ?
25
